- System: Pseudomonas aeruginosa FADDI-PA01
- Assay type: cell-based
- Condition context: FADDI-
- Protocol: MICs of the lipopeptides (trifluoroacetic acid salt, TFA) were determined by broth microdilution in cation-adjusted Mueller-Hinton broth (CAMHB) (Oxoid Australia, Thebarton, SA, Australia) according to the Clinical and Laboratory Standards Institute protocol (Clinical and Laboratory Standards Institute, Performance standards for antimicrobial susceptibility testing; twentyforth informational supplement M100-S24. Wayne, Pa., 2014). Polymyxin B sulphate was employed as the control. […]
Where a SMILES comes first, the peptide text is derived from it. Bridges are numbered along the chain shown (N, C = ends). [ ]: non-standard residue; d: D form. The star is where a group is joined. Isoxazole(3-CO,5-Ph) = O=C(c1cc(-c2ccccc2)on1)*; Quinoxaline2carbonyl = O=C(c1cnc2ccccc2n1)*; X63 = O=C(c1ccc(C(F)(F)F)nc1Cl)*; X44 = O=C(c1cc(-c2ccccc2)no1)*; X4 = O=C(c1cncc(C(F)(F)F)c1)*; X23 = O=C(c1cc2ccccc2[nH]1)*; X1 = O=C(c1ncc(Cl)cc1Cl)*; dNva = CCC[C@@H](N)C(=O)O; X29 = O=C(c1cc(Cl)ccn1)*; Dab = NCC[C@H](N)C(=O)O; X10 = O=C(c1cc(Br)cs1)*; Abu = CC[C@H](N)C(=O)O; Dap = NC[C@H](N)C(=O)O
Experimental endpoint: Minimum inhibitory concentration (µg/mL)
Give the value, in units of µg/mL, as a plain number.

These recorded examples may help you get a feel for the data.
CC[C@@H]1NC(=O)[C@@H](CC(C)C)NC(=O)[C@H](CCN)NC(=O)[C@@H](NC(=O)[C@H](CN)NC(=O)[C@@H](NC(=O)[C@H](CCN)NC(=O)c2cc(Br)cs2)[C@@H](C)O)CCNC(=O)[C@H]([C@@H](C)O)NC(=O)[C@H](CCN)NC(=O)[C@H](CCN)NC1=O [Compound 88] (X10-[Dab]T[Dap][Dab][Dab][dL][Abu][Dab][Dab]T; lactam 4-C) : 0.5
CC[C@@H]1NC(=O)[C@@H](CC(C)C)NC(=O)[C@H](CCN)NC(=O)[C@@H](NC(=O)[C@H](CN)NC(=O)[C@@H](NC(=O)[C@H](CCN)NC(=O)c2cncc(C(F)(F)F)c2)[C@@H](C)O)CCNC(=O)[C@H]([C@@H](C)O)NC(=O)[C@H](CCN)NC(=O)[C@H](CCN)NC1=O [Compound 20] (X4-[Dab]T[Dap][Dab][Dab][dL][Abu][Dab][Dab]T; lactam 4-C) : 0.5
CC[C@@H]1NC(=O)[C@@H](CC(C)C)NC(=O)[C@H](CCN)NC(=O)[C@@H](NC(=O)[C@H](CN)NC(=O)[C@@H](NC(=O)[C@H](CCN)NC(=O)c2cnc3ccccc3n2)[C@@H](C)O)CCNC(=O)[C@H]([C@@H](C)O)NC(=O)[C@H](CCN)NC(=O)[C@H](CCN)NC1=O [Compound 46] (Quinoxaline2carbonyl-[Dab]T[Dap][Dab][Dab][dL][Abu][Dab][Dab]T; lactam 4-C) : 0.25
CC[C@@H]1NC(=O)[C@@H](CC(C)C)NC(=O)[C@H](CCN)NC(=O)[C@@H](NC(=O)[C@H](CN)NC(=O)[C@@H](NC(=O)[C@H](CCN)NC(=O)c2ncc(Cl)cc2Cl)[C@@H](C)O)CCNC(=O)[C@H]([C@@H](C)O)NC(=O)[C@H](CCN)NC(=O)[C@H](CCN)NC1=O [Compound 1] (X1-[Dab]T[Dap][Dab][Dab][dL][Abu][Dab][Dab]T; lactam 4-C) : 0.5
CCC[C@H]1NC(=O)[C@H](CCN)NC(=O)[C@@H](NC(=O)[C@H](CN)NC(=O)[C@@H](NC(=O)[C@H](CCN)NC(=O)c2cc(Cl)ccn2)[C@@H](C)O)CCNC(=O)[C@H]([C@@H](C)O)NC(=O)[C@H](CCN)NC(=O)[C@H](CCN)NC(=O)[C@H](CC)NC1=O [Compound 96] (X29-[Dab]T[Dap][Dab][Dab][dNva][Abu][Dab][Dab]T; lactam 4-C) : 0.25

Q: Find Minimum inhibitory concentration (Pseudomonas aeruginosa FADDI-PA01) for the entry CC[C@@H]1NC(=O)[C@@H](CC(C)C)NC(=O)[C@H](CCN)NC(=O)[C@@H](NC(=O)[C@H](CN)NC(=O)[C@@H](NC(=O)[C@H](CCN)NC(=O)c2cc(-c3ccccc3)on2)[C@@H](C)O)CCNC(=O)[C@H]([C@@H](C)O)NC(=O)[C@H](CCN)NC(=O)[C@H](CCN)NC1=O [Compound 80] ({Isoxazole(3-CO,5-Ph)}-[Dab]T[Dap][Dab][Dab][dL][Abu][Dab][Dab]T; lactam 4-C)
Ans: 0.5

Q: Find Minimum inhibitory concentration (Pseudomonas aeruginosa FADDI-PA01) for the entry CC(C)C[C@H]1NC(=O)[C@H](CCN)NC(=O)[C@@H](NC(=O)[C@H](CN)NC(=O)[C@@H](NC(=O)[C@H](CCN)NC(=O)c2cc3ccccc3[nH]2)[C@@H](C)O)CCNC(=O)[C@H]([C@@H](C)O)NC(=O)[C@H](CCN)NC(=O)[C@H](CCN)NC(=O)[C@H](C)NC1=O [Compound 67] (X23-[Dab]T[Dap][Dab][Dab][dL]A[Dab][Dab]T; lactam 4-C)
Ans: 0.5

Q: Find Minimum inhibitory concentration (Pseudomonas aeruginosa FADDI-PA01) for the entry CC[C@@H]1NC(=O)[C@@H](CC(C)C)NC(=O)[C@H](CCN)NC(=O)[C@@H](NC(=O)[C@H](CN)NC(=O)[C@@H](NC(=O)[C@H](CCN)NC(=O)c2ccc(C(F)(F)F)nc2Cl)[C@@H](C)O)CCNC(=O)[C@H]([C@@H](C)O)NC(=O)[C@H](CCN)NC(=O)[C@H](CCN)NC1=O [Compound 40] (X63-[Dab]T[Dap][Dab][Dab][dL][Abu][Dab][Dab]T; lactam 4-C)
Ans: 0.5

Q: Find Minimum inhibitory concentration (Pseudomonas aeruginosa FADDI-PA01) for the entry CC[C@@H]1NC(=O)[C@@H](CC(C)C)NC(=O)[C@H](CCN)NC(=O)[C@@H](NC(=O)[C@H](CN)NC(=O)[C@@H](NC(=O)[C@H](CCN)NC(=O)c2cc(-c3ccccc3)no2)[C@@H](C)O)CCNC(=O)[C@H]([C@@H](C)O)NC(=O)[C@H](CCN)NC(=O)[C@H](CCN)NC1=O [Compound 87] (X44-[Dab]T[Dap][Dab][Dab][dL][Abu][Dab][Dab]T; lactam 4-C)
Ans: 0.5

Q: Find Minimum inhibitory concentration (Pseudomonas aeruginosa FADDI-PA01) for the entry CC(C)C[C@H]1NC(=O)[C@H](CCN)NC(=O)[C@@H](NC(=O)[C@H](CN)NC(=O)[C@@H](NC(=O)[C@H](CCN)NC(=O)c2cc(Cl)ccn2)[C@@H](C)O)CCNC(=O)[C@H]([C@@H](C)O)NC(=O)[C@H](CCN)NC(=O)[C@H](CCN)NC(=O)[C@H](C)NC1=O [Compound 97] (X29-[Dab]T[Dap][Dab][Dab][dL]A[Dab][Dab]T; lactam 4-C)
Ans: 0.25

---

- Test system: Acinetobacter baumannii FADDI-AB030
- Protocol notes: microbe, parasite or virus in culture
- Assay type: cell-based
- Condition context: FADDI-AB030
Where a SMILES comes first, the peptide text is derived from it. Bridges are numbered along the chain shown (N, C = ends). [ ]: non-standard residue; d: D form. The star is where a group is joined. Quinoxaline2carbonyl = O=C(c1cnc2ccccc2n1)*; Quinaldoyl = O=C(c1ccc2ccccc2n1)*; X64 = O=C(c1noc(-c2ccccc2)n1)*; X32 = O=C(c1cnc(Cl)c(Cl)c1)*; X27 = O=C(c1sc2ccccc2c1Cl)*; X54 = O=C(c1cccc(Cl)n1)*; Dab = NCC[C@H](N)C(=O)O; Abu = CC[C@H](N)C(=O)O; Dap = NC[C@H](N)C(=O)O
Each record here notes measured Minimum inhibitory concentration.

These recorded examples may help you get a feel for the data.
CC[C@@H]1NC(=O)[C@@H](CC(C)C)NC(=O)[C@H](CCN)NC(=O)[C@@H](NC(=O)[C@H](CN)NC(=O)[C@@H](NC(=O)[C@H](CCN)NC(=O)c2ccc3ccccc3n2)[C@@H](C)O)CCNC(=O)[C@H]([C@@H](C)O)NC(=O)[C@H](CCN)NC(=O)[C@H](CCN)NC1=O [Compound 55] (Quinaldoyl-[Dab]T[Dap][Dab][Dab][dL][Abu][Dab][Dab]T; lactam 4-C) : 0.25 µg/mL
CC(C)C[C@H]1NC(=O)[C@H](CCN)NC(=O)[C@@H](NC(=O)[C@H](CN)NC(=O)[C@@H](NC(=O)[C@H](CCN)NC(=O)c2sc3ccccc3c2Cl)[C@@H](C)O)CCNC(=O)[C@H]([C@@H](C)O)NC(=O)[C@H](CCN)NC(=O)[C@H](CCN)NC(=O)[C@H]([C@@H](C)O)NC1=O [Compound 68] (X27-[Dab]T[Dap][Dab][Dab][dL]T[Dab][Dab]T; lactam 4-C) : <0.125 µg/mL
CC[C@@H]1NC(=O)[C@@H](CC(C)C)NC(=O)[C@H](CCN)NC(=O)[C@@H](NC(=O)[C@H](CN)NC(=O)[C@@H](NC(=O)[C@H](CCN)NC(=O)c2cccc(Cl)n2)[C@@H](C)O)CCNC(=O)[C@H]([C@@H](C)O)NC(=O)[C@H](CCN)NC(=O)[C@H](CCN)NC1=O [Compound 43] (X54-[Dab]T[Dap][Dab][Dab][dL][Abu][Dab][Dab]T; lactam 4-C) : 4 µg/mL

Q: So what's the measured Minimum inhibitory concentration for this one? CC[C@@H]1NC(=O)[C@@H](CC(C)C)NC(=O)[C@H](CCN)NC(=O)[C@@H](NC(=O)[C@H](CN)NC(=O)[C@@H](NC(=O)[C@H](CCN)NC(=O)c2cnc3ccccc3n2)[C@@H](C)O)CCNC(=O)[C@H]([C@@H](C)O)NC(=O)[C@H](CCN)NC(=O)[C@H](CCN)NC1=O [Compound 46] (Quinoxaline2carbonyl-[Dab]T[Dap][Dab][Dab][dL][Abu][Dab][Dab]T; lactam 4-C)
Ans: 2 µg/mL

Q: So what's the measured Minimum inhibitory concentration for this one? CC[C@@H]1NC(=O)[C@@H](CC(C)C)NC(=O)[C@H](CCN)NC(=O)[C@@H](NC(=O)[C@H](CN)NC(=O)[C@@H](NC(=O)[C@H](CCN)NC(=O)c2noc(-c3ccccc3)n2)[C@@H](C)O)CCNC(=O)[C@H]([C@@H](C)O)NC(=O)[C@H](CCN)NC(=O)[C@H](CCN)NC1=O [Compound 81] (X64-[Dab]T[Dap][Dab][Dab][dL][Abu][Dab][Dab]T; lactam 4-C)
Ans: 2 µg/mL

Q: So what's the measured Minimum inhibitory concentration for this one? CC[C@@H]1NC(=O)[C@@H](CC(C)C)NC(=O)[C@H](CCN)NC(=O)[C@@H](NC(=O)[C@H](CN)NC(=O)[C@@H](NC(=O)[C@H](CCN)NC(=O)c2cnc(Cl)c(Cl)c2)[C@@H](C)O)CCNC(=O)[C@H]([C@@H](C)O)NC(=O)[C@H](CCN)NC(=O)[C@H](CCN)NC1=O [Compound 5] (X32-[Dab]T[Dap][Dab][Dab][dL][Abu][Dab][Dab]T; lactam 4-C)
Ans: 0.5 µg/mL

Data origin, for the record: patent US11225505B2
